- Test system: corn
- ASSAY REMARKS: Phytotoxicity test for upland field crops (foliar treatment test)
- Format: in vivo
- SETTINGS: 50 g ai/ha, Corn (7 days after treatment)

| MOLECULE | TESTED ON | Foliar treatment phytotoxicity, Corn |
| --- | --- | --- |
| Cn1nnnc1NC(=O)c1ccc(C(F)(F)F)nc1OCc1nnnn1C(F)F | corn | 1 |
| Cn1nnc(COCc2nc(C(F)(F)Cl)ccc2C(=O)Nc2nnnn2C)n1 | corn | 2 |
| C=C(C)c1nc(COCc2nc(C(F)(F)F)ccc2C(=O)Nc2nnnn2C)nn1C | corn | 1 |
| Cn1nnc(COc2nc(C(F)(F)F)ccc2C(=O)Nc2nnnn2C)n1 | corn | 2 |
| COc1nc(COCc2nc(C(F)(F)F)ccc2C(=O)Nc2nnnn2C)nn1C | corn | 0 |
| Cn1cnc(COCc2nc(C(F)F)ccc2C(=O)Nc2nnnn2C)n1 | corn | 0 |
| Cn1ncnc1COCc1nc(C(F)(F)F)ccc1C(=O)Nc1nnnn1C | corn | 6 |
| Cn1nnnc1COCc1nc(C(F)(F)F)ccc1C(=O)Nc1nnnn1C | corn | 0 |
| C=Cc1nc(COCc2nc(C(F)(F)F)ccc2C(=O)Nc2nnnn2C)nn1C | corn | 0 |
| COC(=O)OC(C)N(C(=O)c1ccc(C(F)(F)F)nc1COCc1ncn(C)n1)c1nnnn1C (stereo not drawn) | corn | 0 |
| Cn1nnc(COCc2nc(C(F)(F)F)ccc2C(=O)N(C(=O)c2ccccc2)c2nnnn2C)n1 | corn | 4 |
| CCn1nnc(COCc2nc(C(F)(F)F)ccc2C(=O)Nc2nnnn2CC)n1 | corn | 0 |
| C=CCn1nnnc1NC(=O)c1ccc(C(F)(F)F)nc1COCc1nc(C(F)(F)F)n(C)n1 | corn | 0 |
| Cc1nc(COCc2nc(C(F)(F)F)ccc2C(=O)Nc2nnnn2C)nn1C | corn | 1 |
| CCCn1nnnc1NC(=O)c1ccc(C(F)(F)F)nc1COCc1nnn(CC)n1 | corn | 0 |
| Cn1nnnc1CSc1nc(C(F)(F)F)ccc1C(=S)Nc1nnnn1C | corn | 5 |
| Cn1nc(COCc2nc(C(F)(F)F)ccc2C(=O)Nc2nnnn2C)nc1Br | corn | 0 |
| Cn1nnc(COCc2nc(C(F)(F)F)ccc2C(=O)Nc2nnnn2C)n1 | corn | 0 |
| C#CCn1nnnc1NC(=O)c1ccc(C(F)(F)F)nc1COCc1nc(C(F)(F)F)n(C)n1 | corn | 0 |
| Cn1nnc(CSCc2nc(C(F)(F)F)ccc2C(=O)Nc2nnnn2C)n1 | corn | 0 |
| Cn1nnnc1COc1nc(C(F)(F)F)ccc1C(=O)Nc1nnnn1C | corn | 2 |
| CCCn1nnnc1NC(=O)c1ccc(C(F)(F)F)nc1COCc1nc(C(F)F)n(C)n1 | corn | 2 |
| CCCn1nnnc1NC(=O)c1ccc(C(F)(F)F)nc1COCc1nc(C(F)(F)F)n(C)n1 | corn | 0 |
| Cn1nnc(CSCc2nc(C(F)(F)F)ccc2C(=O)N(C(=O)c2ccccc2)c2nnnn2C)n1 | corn | 0 |
| Cn1nc(COCc2nc(C(F)(F)F)ccc2C(=O)Nc2nnnn2C)nc1CF | corn | 1 |
| Cn1nc(COCc2nc(C(F)(F)F)ccc2C(=O)Nc2nnnn2C)nc1I | corn | 0 |
| CCn1nnnc1NC(=O)c1ccc(C(F)(F)F)nc1COCc1nc(C(F)(F)F)n(C)n1 | corn | 0 |
| Cn1nnnc1NC(=O)c1ccc(C(F)(F)F)nc1COCc1nc(S(C)(=O)=O)n(C)n1 | corn | 0 |
| Cn1nnnc1NC(=O)c1ccc(C(F)(F)F)nc1Sc1nnnn1C | corn | 0 |
| Cn1ncnc1COc1nc(C(F)(F)F)ccc1C(=O)Nc1nnnn1C | corn | 1 |
| CCn1nnc(COCc2nc(C(F)(F)F)ccc2C(=O)Nc2nnnn2C)n1 | corn | 0 |
| COC(=O)OC(C)N(C(=O)c1ccc(C(F)(F)F)nc1CSCc1nnn(C)n1)c1nnnn1C (stereo not drawn) | corn | 0 |
| Cn1nnc(COCc2nc(C(F)F)ccc2C(=O)Nc2nnnn2C)n1 | corn | 2 |
